# ASSAY_COMMENT: gradient 5% acetonitrile 3 min, to 50% in 2 min, to 85% in 15 min, held 3 min, 100 µL/min
# STATED_CONDITIONS: column: Zorbax Extend-C18 2.1 x 50 mm; eluents: water / acetonitrile, 0.1% formic acid
ENDPOINT_LABEL: RP-LC retention time

> print(dat)
                                   compound        endpoint.label  reported.result
1  CCOC(=O)c1c(C)oc2ncnc(NCCN3CCCc4ccccc43)c12  RP-LC retention time           1350 s
2  Cc1ccccc1Oc1nccn2c(=O)n(CC(=O)Nc3ccccc3)nc12  RP-LC retention time            856 s
3  Cc1ccc2nc(-c3ccncc3)cc(C(=O)Nc3nc(-c4ccccc4)c(C)s3)c2c1  RP-LC retention time            990 s
4    COc1ccccc1C1(CNC(=O)Cc2ccccc2Cl)CCOCC1  RP-LC retention time            817 s

Turning to the following compound.
Exercise: # get_value(readout='RP-LC retention time', item= O=C1CC(c2nc(-c3cccc(Cl)c3)no2)CN1c1ccc2c(c1)OCCO2 (stereo not given) )
Key: 1000 s

====

# ASSAY_COMMENT: gradient 5% acetonitrile 3 min, to 50% in 2 min, to 85% in 15 min, held 3 min, 100 µL/min
# STATED_CONDITIONS: column: Zorbax Extend-C18 2.1 x 50 mm; eluents: water / acetonitrile, 0.1% formic acid
ENDPOINT_LABEL: RP-LC retention time (s)
Give your result in s as a bare value.

Exercise: # get_value(readout='RP-LC retention time', item= `Cc1nnsc1C(=O)Nc1nnc(SCC(=O)Nc2ccc(F)c(Cl)c2)s1` )
Key: 813

Exercise: # get_value(readout='RP-LC retention time', item= `CC(C)Cc1nnc(NC(=O)C2CCN(C(=O)c3ccccc3)CC2)s1` )
Key: 750

Exercise: # get_value(readout='RP-LC retention time', item= `CC(C)n1cnc(S(=O)(=O)N2CCC(C(=O)N3CCN(c4ccc(F)cc4)CC3)CC2)c1` )
Key: 799

Exercise: # get_value(readout='RP-LC retention time', item= `Cc1ccc(Cn2nc3c(S(=O)(=O)N4CCCCC4)cccn3c2=O)cc1` )
Key: 925

Exercise: # get_value(readout='RP-LC retention time', item= `COc1ccc(OC)c(CCNC(=O)c2c(N3CCCC3=O)c3cc(OC)ccc3n2C)c1` )
Key: 867

Exercise: # get_value(readout='RP-LC retention time', item= `Cc1ccccc1Nc1c(-c2ccccc2)nc2ccc(Cl)cn12` )
Key: 869

Exercise: # get_value(readout='RP-LC retention time', item= `CN(CC(=O)NCc1ccncc1)c1nc2c(Cl)cccc2s1` )
Key: 564

====

# RP-LC retention time annotations
# ASSAY_COMMENT: gradient 5% acetonitrile 3 min, to 50% in 2 min, to 85% in 15 min, held 3 min, 100 µL/min
# STATED_CONDITIONS: column: Zorbax Extend-C18 2.1 x 50 mm; eluents: water / acetonitrile, 0.1% formic acid
Give your result in s as a bare value.

> print(dat)
                                   compound  readout.unit  reported.result
1  CC1CC(=O)c2cnc(N3CCN(c4ccccn4)CC3)nc2C1 (centres undefined)             s              611
2  Cc1cccc(OCC(=O)N2CCc3cc(-c4csc(C)n4)ccc32)c1             s              847

Exercise: # get_value(readout='RP-LC retention time', item= `CCn1nc(C)c(CCN(C)C(=O)Nc2ccccc2Br)c1C` )
Key: 705

Exercise: # get_value(readout='RP-LC retention time', item= `CCN1C(=O)c2cccnc2Sc2cc(NC(=O)Cc3ccc(C)cc3)ccc21` )
Key: 855

Exercise: # get_value(readout='RP-LC retention time', item= `c1cc(-c2nc(-c3ccc(OC4CNC4)cc3)no2)ccn1` )
Key: 604

Exercise: # get_value(readout='RP-LC retention time', item= `Cc1ccc(NC(=O)c2cccc([N+](=O)[O-])c2O)c(C)c1` )
Key: 951

Exercise: # get_value(readout='RP-LC retention time', item= `Cc1cc(C)c(NC(=O)Cn2cc(-c3nc(C)no3)ccc2=O)c(C)c1` )
Key: 712

Exercise: # get_value(readout='RP-LC retention time', item= `CN1c2cc(F)ccc2C(=O)NC12CCN(C(=O)Nc1ccc3c(c1)OCCO3)CC2` )
Key: 725

Exercise: # get_value(readout='RP-LC retention time', item= `O=C(Nc1ccccc1C(F)(F)F)C1CN(C(=O)c2ccc(F)c(F)c2)C1` )
Key: 748
